target: full-length beta-Catenin (Uniprot ID P35222) (Homo sapiens (Human)) (UniProt P35222); test: FP competition: full-length beta-catenin 10 nM + 5FAM-TCF4(10-53) 10 nM
Sequence (P35222 whole entry): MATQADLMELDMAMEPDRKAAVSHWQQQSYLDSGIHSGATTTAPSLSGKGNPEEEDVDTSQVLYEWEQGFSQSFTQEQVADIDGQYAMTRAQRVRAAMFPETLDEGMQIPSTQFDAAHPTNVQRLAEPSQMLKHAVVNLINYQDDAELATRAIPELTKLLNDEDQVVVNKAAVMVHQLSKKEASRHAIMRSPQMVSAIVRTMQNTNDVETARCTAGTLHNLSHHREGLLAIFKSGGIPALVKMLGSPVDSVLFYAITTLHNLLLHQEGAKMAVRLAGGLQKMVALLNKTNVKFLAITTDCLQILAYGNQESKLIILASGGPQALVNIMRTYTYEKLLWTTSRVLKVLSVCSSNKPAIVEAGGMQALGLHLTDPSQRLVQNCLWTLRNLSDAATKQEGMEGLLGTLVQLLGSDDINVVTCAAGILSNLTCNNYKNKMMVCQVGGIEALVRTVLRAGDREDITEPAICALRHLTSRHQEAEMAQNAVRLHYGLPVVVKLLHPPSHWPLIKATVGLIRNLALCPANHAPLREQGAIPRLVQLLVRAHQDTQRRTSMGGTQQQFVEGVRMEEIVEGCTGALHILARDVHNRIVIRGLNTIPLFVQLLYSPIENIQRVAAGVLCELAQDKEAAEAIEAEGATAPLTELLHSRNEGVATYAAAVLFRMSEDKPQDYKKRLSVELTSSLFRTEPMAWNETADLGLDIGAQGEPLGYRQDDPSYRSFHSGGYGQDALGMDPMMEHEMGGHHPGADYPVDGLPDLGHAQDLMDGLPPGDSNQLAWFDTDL
Starred links: 1 amine or outer side, 2 acyl side, 3 side chain; linkers in the order of their positions; H or OH if unused. Positions of bridges follow the written chain, without caps; N, C: chain ends. Non-standard residues stand in square brackets, D forms with d. Primed or numbered codes have the meaning given here. *: point of attachment. B5(4) = 2,2-bis(4-pentenyl)glycine = 2-amino-2-(pent-4-en-1-yl)hept-6-enoic acid (stitching residue), C=CCCCC(CCCC=C)(N[*:1])C(=O)[*:2]; Ala(4-thiazolyl) = N[C@@H](Cc1cscn1)C(=O)O; Bta = N[C@@H](Cc1csc2ccccc12)C(=O)O; αAllylPro = C=CC[C@@]1(C(=O)O)CCCN1; S8 = C=CCCCCCC[C@](C)(N)C(=O)O; Dab = NCC[C@H](N)C(=O)O; Nva = CCC[C@H](N)C(=O)O; Dap = NC[C@H](N)C(=O)O; Ms = CS(=O)(=O)*
Assay readout: pIC50
One number for each entry, as −log10 of the molar value.

# count of solved cases: 3
Binder	pIC50
Ac-[αAllylPro]DA[B5(4)][Dab](Ms)EAAFN[S8]F[Bta]Q-NH2 (staple 1-4, 4-11) [I-532]	5.30
Ac-[αAllylPro]D[Nva][B5(4)]DEAAFQ[S8]F[Bta]Q-NH2 (staple 1-4, 4-11; also: later eluting HPLC peak staple isomer) [I-523]	7.36
Ac-[αAllylPro]DA[B5(4)][Dap](Ms)EAAFN[S8]F[Bta]Q-NH2 (staple 1-4, 4-11) [I-530]	5.30

Here is the next item to consider.
Please give the measured pIC50 for this binder: Ac-[αAllylPro]DA[B5(4)]DEAA[Ala(4-thiazolyl)]N[S8]F[Bta]Q-NH2 (staple 1-4, 4-11) [I-524] 5.59
